# Test system: A. baumannii strain AB2
# measurement notes: MIC by broth micro-dilution, clinical strain AB2
# Type: cell-based, Acinetobacter baumannii
# measurement setup: strain AB2, 10^5 cfu/mL, no tetracycline
# Description: Precisely, five strains of clinical A. baumannii, named AB1, AB2, AB4, AB5, AB6, are isolated from patients in Kaohsiung Medical University Hospital, 1600-bed tertiary referral medical center in Taiwan, wherein each of strains is from different clones by genotyping and collected from different samples, for example, sputum, wound pus, blood, pleural fluid, and bronchial washing. […]
measured endpoint: MIC, ginger compound only

compound="CCCCC/C=C/C(=O)CCc1ccc(O)c(OC)c1 [[6]-shogaol]" result="274.0 µM"
compound="CCCCCC(=O)CC(=O)/C=C/c1ccc(O)c(OC)c1 [[6]-dehydrogingerdione]" result="166.2 µM"
compound="CCCCCCCCC[C@H](O)CC(=O)CCc1ccc(O)c(OC)c1 [[10]-gingerol]" result="162.3 µM"
compound="CCCCC[C@H](O)CC(=O)CCc1ccc(O)c(OC)c1 [[6]-gingerol]" result="226.8 µM"

Attribution: patent US8802737B2
